system: SARS-CoV-2 (strain USA-WA1/2020); test: microbe, parasite or virus in culture; assay type: cell-based; details: Severe acute respiratory syndrome coronavirus 2; Table 2; SARS-CoV-2 infected HeLa-ACE2 cells; read-out: CoV-2 HeLa EC50
Field: label. Allowed values: rule met (EC50 < 800 nM) or rule not met (EC50 >= 800 nM).

input: For this compound, is EC50 lower than 800 nM? `O=C(c1cncnc1)N1CCN(C(c2ccccc2)c2ccccc2)CC1`
output: rule not met

input: Repeat for the following compound: `Cc1cncc(C(=O)N2CCN(C(c3cccc(F)c3)c3cccc(F)c3)CC2)c1`
output: rule met

input: Here is the next compound: `O=C(c1cncc(O)c1)N1CCN(C(c2ccccc2)c2ccccc2)CC1`
output: rule not met

input: Try the compound `O=C(c1cncc(C(F)(F)F)c1)N1CCN(C(c2ccccc2)c2ccccc2)CC1`
output: rule not met

input: Lookup O=C(c1cncc(Br)c1)N1CCN(C2c3ccccc3CSc3ccccc32)CC1 (stereo not shown)
output: rule met

input: Same lookup for `Cc1cncc(C(=O)N2CCC(C(O)(c3ccccc3)c3ccccc3)CC2)c1` , please.
output: rule met

input: Also check `CC(=O)Nc1cncc(C(=O)N2CCN(C(c3ccccc3)c3ccccc3)CC2)c1`
output: rule not met

input: Proceed to COc1cccc(C(c2ccccc2)N2CCN(C(=O)c3cncc(F)c3)CC2)c1 (stereo not shown)
output: rule not met

input: Request: Cc1cncc(C(=O)N2CCN(C(c3ccccc3)c3ccsc3)CC2)c1 (stereo not shown)
output: rule not met

input: How about this compound: `Cc1cncc(C(=O)N2CCC(=C(c3ccccc3)c3ccccc3)CC2)c1`
output: rule met

input: Thanks! And COc1cncc(C(=O)N2CCN(C(c3ccccc3)c3cccnc3)CC2)c1 (stereo not shown) ?
output: rule not met

input: Now the same for `O=C(c1cnc(Cl)c(Cl)c1)N1CCN(C(c2ccccc2)c2ccccc2)CC1`
output: rule not met

input: Here is the next compound: `O=C(c1cncc(F)c1)N1CCC(=C(c2ccccc2)c2ccccc2)CC1`
output: rule not met

input: Quick one: `O=C(c1cncc(Br)c1)N1CCC(=C(c2ccccc2)c2ccccc2)CC1`
output: rule not met

input: Please do the same for Cc1cncc(C(=O)N2CCN(C(c3ccccc3)c3cccnc3)CC2)c1 (stereo not shown) as well.
output: rule met

input: Now this one: Cc1cncc(C(=O)N2CCN(C3c4ccccc4NC(=O)c4ccccc43)CC2)c1 (stereo not shown)
output: rule met

input: Item: O=C(c1cncc(Cl)c1)N1CCN(C(c2ccccc2)c2ccsc2)CC1 (stereo not shown)
output: rule not met

input: Moving on to Cc1cncc(C(=O)N2CCN(C(c3ccccc3)c3cccc(C(F)(F)F)c3)CC2)c1 (stereo not shown)
output: rule met
